The origin of these recorded values is patent EP4810493A1.

# Test target: M4 receptor (Homo sapiens, UniProt P08173)
# Construct: expressed in transfected cells
# Sequence (P08173 whole entry): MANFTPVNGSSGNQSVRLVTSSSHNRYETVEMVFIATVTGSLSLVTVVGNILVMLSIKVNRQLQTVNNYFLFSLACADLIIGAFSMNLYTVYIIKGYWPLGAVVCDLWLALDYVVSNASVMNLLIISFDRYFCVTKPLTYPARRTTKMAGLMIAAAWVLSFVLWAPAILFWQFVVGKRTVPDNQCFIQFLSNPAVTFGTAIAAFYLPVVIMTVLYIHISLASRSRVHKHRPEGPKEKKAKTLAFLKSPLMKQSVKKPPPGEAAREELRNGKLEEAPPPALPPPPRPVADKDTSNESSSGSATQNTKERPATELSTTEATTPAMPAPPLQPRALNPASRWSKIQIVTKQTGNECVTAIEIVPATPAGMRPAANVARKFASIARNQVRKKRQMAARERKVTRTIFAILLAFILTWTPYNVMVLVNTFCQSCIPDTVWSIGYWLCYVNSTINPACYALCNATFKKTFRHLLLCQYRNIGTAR
# Assay notes: Calcium flux (FLIPR) potentiation assay in cells stably expressing M4 receptor
# Assay type: cell-based
# Condition summary: CHO-K1/M4/Gα15 cells; potentiation of acetylcholine (EC20) calcium flux; read-out: M4 FLIPR EC50
Test readout: EC50 (nM)

Use the examples below as a reference point.
> print(dat)
                               query.smiles  test.readout  result.unit  reported.measurement
1  Cc1c2c(c3ncnn3c1C)CN(C(=O)CC1CN(c3cc(NC(C)C)ncn3)C1)C2          EC50           nM                   9.6
2  Cc1c2c(c3nc(N)nn3c1C)CN(C(=O)CC1CN(c3ccnc(OC(F)F)c3)C1)C2          EC50           nM                  25.9
3  Cc1c2c(c3ncnn3c1C)CN(C(=O)CC1CN(c3ccc(C(F)(F)F)cn3)C1)C2          EC50           nM                  99.7
4  CCOc1cc(N2CC(CC(=O)N3Cc4c(C)c(C)n5ncnc5c4C3)C2)ccn1          EC50           nM                  35.3
5  Cc1c2c(c3ncnn3c1C)CN(C(=O)OC1CN(c3cc(C(F)F)ncc3Cl)C1)C2          EC50           nM                  44.1
6  Cc1c2c(c3ncnn3c1C)CN(C(=O)CC1CN(c3ccc4c(cnn4C)c3)C1)C2          EC50           nM                  87.1
7  Cc1c2c(c3nnnn3c1C)CN(C(=O)CC1CN(c3ccnc(C(F)(F)F)c3)C1)C2          EC50           nM                  37.7

[I] Cc1c2c(c3ncnn3c1C)CN(C(=O)CC1CN(c3ccnc(OCC(F)(F)F)c3)C1)C2
[II] Cc1c2c(c3ncnn3c1C)CN(C(=O)CC1CN(c3ccc4c(cnn4C4CC4)c3)C1)C2
Qu. Identify the item whose EC50 is the smaller number: I or II Pick one; state its label.
Ans. II
(II: 11.1 nM, I: 28.8 nM)
